# protocol: in vivo
# conditionDescription: dog, po, 50 mg/kg
measuredParameter: Tmax (h)
The answer is to be given in h; state only the numeric part.

Quick check: Tmax of OC1C(O)C(O)C(O)C(O)C1O (stereo not shown) ? 1.2

* * *

# protocol: clinical
# conditionDescription: male, human, in vivo, po, 1000 mg
measuredParameter: MRT (h)
# value in h; strip the unit string

Which MRT value belongs to OC1C(O)C(O)C(O)C(O)C1O (stereo not shown) ? 19.7

* * *

# protocol: in vivo
# conditionDescription: dog, po, 50 mg/kg
measuredParameter: MRT (h)
Give just the numeric value; h need not be written.

Please look up its MRT: OC1C(O)C(O)C(O)C(O)C1O (stereo not shown) 2.9
